I'd appreciate it if you could supply IC50 values for the items below.
System: activity-regulated Gln/MeAIB transport (SNAT activity) in hippocampal neurons
assay.name: Activity-regulated (spontaneous, 4-AP- or K+-stimulated) [14C]-MeAIB transport in primary hippocampal neurons
Type: cell-based, rat
settings: Rattus norvegicus, Hippocampal neuron; 4-AP-stimulated (depolarization) [14C]-MeAIB uptake, DIV16; n in brackets; read-out: SNAT Activity IC50, 4-AP
One number for each entry, in µM.

Per the record, Nc1nc(-c2cccc3ccccc23)c(Br)s1 [drawing 65] has IC50 of 5.1

Value of IC50 reported for the compound Nc1nc(-c2ccc3ccccc3c2)c(F)s1 is 17.9

We next turn to a different compound, shown below.
Record summary for Nc1nc(-c2ccc(OC(F)(F)F)cc2)c(Cl)s1 : reported IC50 = 7.4

Each recorded value in this set is attributed to patent US11974988B2.
